# subjectOfTest: PIK3CA (human) (UniProt P42336)
# Sequence (P42336 whole entry, looked up): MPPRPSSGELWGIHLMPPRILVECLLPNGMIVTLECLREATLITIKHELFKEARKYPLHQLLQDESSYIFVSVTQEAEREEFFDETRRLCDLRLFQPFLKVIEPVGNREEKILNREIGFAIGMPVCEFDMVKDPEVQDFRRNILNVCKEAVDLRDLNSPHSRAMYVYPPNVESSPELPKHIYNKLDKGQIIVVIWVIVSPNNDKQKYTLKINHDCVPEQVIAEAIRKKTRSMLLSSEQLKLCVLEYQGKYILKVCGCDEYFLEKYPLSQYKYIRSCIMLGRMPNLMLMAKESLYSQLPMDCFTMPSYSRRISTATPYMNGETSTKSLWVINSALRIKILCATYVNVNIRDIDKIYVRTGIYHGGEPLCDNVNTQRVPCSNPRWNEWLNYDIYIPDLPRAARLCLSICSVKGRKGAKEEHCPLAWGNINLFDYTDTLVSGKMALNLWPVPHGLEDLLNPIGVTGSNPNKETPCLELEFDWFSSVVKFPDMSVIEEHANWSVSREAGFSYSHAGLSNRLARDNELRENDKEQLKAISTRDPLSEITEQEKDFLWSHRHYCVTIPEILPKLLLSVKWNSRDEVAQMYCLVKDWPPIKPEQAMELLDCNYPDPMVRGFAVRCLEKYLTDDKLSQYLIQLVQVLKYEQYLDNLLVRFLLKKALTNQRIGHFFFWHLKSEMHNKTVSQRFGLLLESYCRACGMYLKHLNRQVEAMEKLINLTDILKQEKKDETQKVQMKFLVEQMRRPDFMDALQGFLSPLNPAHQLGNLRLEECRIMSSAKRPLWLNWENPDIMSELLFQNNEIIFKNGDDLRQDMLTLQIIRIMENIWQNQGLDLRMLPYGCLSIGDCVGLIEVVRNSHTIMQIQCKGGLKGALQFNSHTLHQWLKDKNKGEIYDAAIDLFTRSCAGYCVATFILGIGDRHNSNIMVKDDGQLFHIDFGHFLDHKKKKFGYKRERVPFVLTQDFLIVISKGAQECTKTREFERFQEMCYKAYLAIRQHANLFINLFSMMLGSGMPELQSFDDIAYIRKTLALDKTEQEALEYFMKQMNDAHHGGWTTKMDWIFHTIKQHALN
# assayInfo: Cell-Based Assay
# testContext: rat-1
Entries and their IC50

Sample records with IC50:
Nc1nc(N2CSC[C@H]2c2nc3cccc(Cl)c3c(=O)n2-c2ccccc2)c2nc[nH]c2n1; 6.63 µM
Nc1nc(N2CCC[C@H]2c2nc3cccc(C(F)(F)F)c3c(=O)n2-c2cncc(F)c2)c2nc[nH]c2n1; > 10 µM
N#Cc1c(N)ncnc1N1C[C@@H](O)C[C@H]1c1nc2cccc(C(F)(F)F)c2c(=O)n1-c1cccc(F)c1; > 10 µM
N#Cc1c(N)ncnc1N1C[C@@H](O)C[C@H]1c1nc2cccc(F)c2c(=O)n1-c1ccccc1; > 10 µM
Cc1nc(N)nc(N2C[C@@H](O)C[C@H]2c2nc3ccc(F)c(C)c3c(=O)n2-c2ccccc2)c1C#N; 1.09 µM
Cc1nc(N)nc(N2C[C@@H](O)C[C@H]2c2nc3cccc(C(F)(F)F)c3c(=O)n2-c2cccc(F)c2)c1C#N; 6.57 µM
Cc1nc(N)nc(N2CCC[C@H]2c2nc3ccc(F)c(F)c3c(=O)n2-c2ccccc2)c1C#N; > 10 µM
CS(=O)(=O)N1CC[C@@H](n2c([C@@H]3CCCN3c3ncnc4[nH]cnc34)nc3cccc(Cl)c3c2=O)C1; > 10 µM
O=c1c2c(Cl)cccc2nc([C@@H]2CSCN2c2ncnc3[nH]cnc23)n1-c1ccccc1C1CC1; 7.14 µM
Nc1nc(N2C[C@@H](O)C[C@H]2c2nc3cccc(C(F)(F)F)c3c(=O)n2-c2ccccc2)c2nc[nH]c2n1; 7.54 µM

Input CO[C@H]1C[C@@H](c2nc3cccc(C(F)(F)F)c3c(=O)n2N2CCOCC2)N(c2ncnc(N)c2C#N)C1 . Output IC50: > 10 µM

Input Cc1nc(N)nc(N2C[C@@H](O)C[C@H]2c2nc3ccc(F)c(F)c3c(=O)n2-c2ccccc2)c1C#N . Output IC50: 7.13 µM

Input Cc1nc(N)nc(N2C[C@@H](O)C[C@H]2c2nc3ccc(F)c(Cl)c3c(=O)n2-c2ccccc2)c1C#N . Output IC50: 1.95 µM

Input Nc1nc(N2CCC[C@H]2c2nc3cccc(Cl)c3c(=O)n2N2CCOCC2)c2nccn2n1 . Output IC50: > 10 µM

Input Nc1nc(N2CCC[C@H]2c2nc3cccc(C(F)(F)F)c3c(=O)n2-c2ccccc2)c2ncsc2n1 . Output IC50: > 10 µM

Input COc1ccc(-n2c([C@@H]3CCCN3c3nc(N)nc4[nH]cnc34)nc3cccc(Cl)c3c2=O)cn1 . Output IC50: > 10 µM

Input N#Cc1c(N)ncnc1N1OCC[C@H]1c1nc2cccc(Cl)c2c(=O)n1-c1ccccc1 . Output IC50: 3.69 µM

====

# subjectOfTest: PIK3CD (Human)
# assayInfo: Cell-Based Assay
# testContext: rat-1
Entries and their IC50

CO[C@H]1C[C@@H](c2nc3cccc(Cl)c3c(=O)n2C2CC2)N(c2ncnc(N)c2C#N)C1; 26 nM

Entry N#Cc1c(N)ncnc1N1CCC[C@H]1c1nc2cccc(Cl)c2c(=O)n1C1CCOCC1 ; assay system PIK3CD (Human); IC50 recorded at 36 nM

Entry O=c1c2c(Cl)cccc2nc([C@@H]2CCCN2c2ncnc3scnc23)n1-c1ccccc1 ; assay system PIK3CD (Human); IC50 recorded at 51 nM

Entry COC(=O)N1CC[C@H](n2c([C@@H]3CCCN3c3ncnc4[nH]cnc34)nc3cccc(Cl)c3c2=O)C1 ; assay system PIK3CD (Human); IC50 recorded at 1150 nM

Entry O=c1c2c(F)cc(F)cc2nc([C@@H]2CCCN2c2ncnc3[nH]cnc23)n1-c1ccccc1 ; assay system PIK3CD (Human); IC50 recorded at 733 nM

Entry Cc1nc(N)nc(N2CCC[C@H]2c2nc3ccc(F)c(C)c3c(=O)n2-c2ccccc2)c1C#N ; assay system PIK3CD (Human); IC50 recorded at 42 nM

Entry Cc1nc(N)nc(N2CCC[C@H]2c2nc3cccc(C(F)(F)F)c3c(=O)n2-c2cncnc2)c1C#N ; assay system PIK3CD (Human); IC50 recorded at 295 nM

Entry Cc1nc(N)c(C#N)c(N2CCC[C@H]2c2nc3cccc(C(F)(F)F)c3c(=O)n2-c2ccccc2)n1 ; assay system PIK3CD (Human); IC50 recorded at > 10000 nM

Entry Cc1ccccc1-n1c([C@@H]2CCCN2c2ncnc(N)c2C#N)nc2cccc(Cl)c2c1=O ; assay system PIK3CD (Human); IC50 recorded at 13 nM

====

Entries and their IC50
# subjectOfTest: PIK3CA (human) (UniProt P42336)
# assayInfo: Cell-Based Assay
# testContext: rat-1
Hi! Could you send only the number? It should be in µM, unit omitted.

Sample records with IC50:
Cc1nc(N)nc(N2CCC[C@H]2c2nc3cccc(C(F)(F)F)c3c(=O)n2-c2ccccc2)c1C#N; 0.21
Cc1nc(N)nc(N2CCC[C@H]2c2nc3cccc(Cl)c3c(=O)n2-c2ccccc2)c1C#N; 1.11

Input CC1(n2c([C@@H]3CCCN3c3ncnc4[nH]cnc34)nc3cccc(Cl)c3c2=O)CC1 . Output IC50: 2.15

Input CO[C@H]1C[C@@H](c2nc3cccc(Cl)c3c(=O)n2-c2ccccc2)N(c2ncnc(N)c2C#N)C1 . Output IC50: 4.04

Input Cc1nc(N)nc(N2CCC[C@H]2c2nc3cccc(S(C)(=O)=O)c3c(=O)n2-c2ccccc2)c1C#N . Output IC50: 4.6

Input CN(C)n1c([C@@H]2CCCN2c2nc(N)nc3[nH]cnc23)nc2cccc(Cl)c2c1=O . Output IC50: 2.86

Input Nc1nc(N2CCC[C@H]2c2nc3cccc(Cl)c3c(=O)n2N2CCCCC2)c2nc[nH]c2n1 . Output IC50: 8.58

Input Cc1nc(N)nc(N2C[C@@H](O)C[C@H]2c2nc3ccc(F)c(C4CC4)c3c(=O)n2-c2ccccc2)c1C#N . Output IC50: 2.37

====

# subjectOfTest: PIK3CD (Human)
# assayInfo: Enzyme Assay
Entries and their log10 IC50
Lab note - IC50 converted to log10 from values in nM.

Cc1nc(N)nc(N2CCC[C@H]2c2nc3cccc(C(F)(F)F)c3c(=O)n2-c2ccccc2)c1C#N; 0.70

Input CN(C)n1c([C@@H]2CCCN2c2ncnc3[nH]cnc23)nc2cccc(Cl)c2c1=O . Output log10 IC50: 1.95

Input Cc1nc(N)nc(N2C[C@@H](O)C[C@H]2c2nc3ccc(F)c(C)c3c(=O)n2-c2ccccc2)c1C#N . Output log10 IC50: 1.15

Input Cc1nc(N)nc(N2CCC[C@H]2c2nc3ccc(F)c(F)c3c(=O)n2-c2ccccc2)c1C#N . Output log10 IC50: 1.15

Input Cc1ccccc1-n1c([C@@H]2CCON2c2ncnc3[nH]cnc23)nc2cccc(Cl)c2c1=O . Output log10 IC50: 2.00

Input Cc1nc(N)nc(N2CCC[C@H]2c2nc3cccc(C(F)(F)F)c3c(=O)n2-c2cccc(F)c2)c1C#N . Output log10 IC50: 1.23

Input Cc1nc(N)nc(N2CCC[C@H]2c2nc3cccc(F)c3c(=O)n2-c2ccccc2)c1C#N . Output log10 IC50: 1.32

Input Cn1cnc2c(N3CCC[C@H]3c3nc4cccc(Cl)c4c(=O)n3-c3ccccc3)nc(N)nc21 . Output log10 IC50: 1.72

Input CO[C@H]1C[C@@H](c2nc3cccc(Cl)c3c(=O)n2C2CC2)N(c2ncnc(N)c2C#N)C1 . Output log10 IC50: 2.11

====

# subjectOfTest: PIK3CA (human) (UniProt P42336)
# assayInfo: Cell-Based Assay
# testContext: rat-1
Kindly apply the following: 1.0 if IC50 is less than 5 µM, 0.0 in every other case.

O=c1c2c(Cl)cccc2nc([C@@H]2C[C@H](O)CN2c2ncnc3[nH]cnc23)n1-c1ccccc1; 1.0
O=c1c2c(C(F)(F)F)cccc2nc([C@@H]2C[C@H](O)CN2c2ncnc3[nH]cnc23)n1-c1ccccc1; 0.0
N#Cc1c(N)ncnc1N1CCC[C@H]1c1nc2cccc(C(F)(F)F)c2c(=O)n1-c1cccc(F)c1; 0.0
N#Cc1cnc(N)nc1N1CCC[C@H]1c1nc2cccc(C(F)(F)F)c2c(=O)n1-c1ccccc1; 0.0
Cc1ccc(-n2c([C@@H]3CSCN3c3ncnc(N)c3C#N)nc3cccc(Cl)c3c2=O)s1; 0.0

Hello, I'm reviewing records and need to know if IC50 of N#Cc1c(N)ncnc1N1C[C@@H](O)C[C@H]1c1nc2cccc(C(F)(F)F)c2c(=O)n1-c1cccnc1 is below 5 µM. Could you check? 1.0

Hello, I'm reviewing records and need to know if IC50 of Cc1nc(N)nc(N2CCC[C@H]2c2nc3cccc(C(F)(F)F)c3c(=O)n2-c2cncc(F)c2)c1C#N is below 5 µM. Could you check? 0.0

Hello, I'm reviewing records and need to know if IC50 of Cc1nc(N)nc(N2CCC[C@H]2c2nc3cccc(Cl)c3c(=O)n2N2CCOCC2)c1C#N is below 5 µM. Could you check? 1.0

Hello, I'm reviewing records and need to know if IC50 of Cc1nc(N)nc(N2CCC[C@H]2c2nc3cccc(OC(F)F)c3c(=O)n2-c2ccccc2)c1C#N is below 5 µM. Could you check? 0.0

Hello, I'm reviewing records and need to know if IC50 of N#Cc1c(N)ncnc1N1C[C@@H](O)C[C@H]1c1nc2cccc(Cl)c2c(=O)n1-c1ccccc1 is below 5 µM. Could you check? 1.0

Hello, I'm reviewing records and need to know if IC50 of COc1cccc2nc([C@@H]3CCCN3c3ncnc(N)c3C#N)n(-c3ccccc3)c(=O)c12 is below 5 µM. Could you check? 0.0
